assay: Plasma stability (37° C., pH 7.4), human; assay type: in vitro ADME; settings: human plasma, test article 1 μM, 37° C., pH 7.4, 15 min

# compound, units, relation, % Remaining of Initial (n = 1), 15 min
measured = [
    ("CCCCCCCCCCCCCCCC(=O)NCCOC(=O)CCC(=O)OCC(O)CO (stereo not shown)", "%", "=", 6.4),
    ("CCCCC/C=C\\C/C=C\\CCCCCCCC(=O)OCCNC(=O)CCCCCCCCCCCCCCC", "%", "=", 79),
    ("CCCCCCCCCCCCCCCC(=O)NCCOC(=O)CCC(=O)OCC(COC(=O)CCCCCCC)OC(=O)CCCCCCC (stereo not shown) [Compound I-3, PEA-Succinate-Glycerol-Di-Caprylic]", "%", "=", 109),
    ("CC/C=C\\C/C=C\\C/C=C\\C/C=C\\C/C=C\\CCCC(=O)OCCNC(=O)CCCCCCCCCCCCCCC", "%", "=", 110),
    ("CCCCCCCCCCCCCCCC(=O)NCCOC(=O)CCC(=O)OC[C@H]1O[C@@](CO)(O[C@H]2O[C@H](CO)[C@@H](O)[C@H](O)[C@H]2O)[C@@H](O)[C@@H]1O", "%", "<", 1.0),
    ("CCCCCCCCCCCCCCCC(=O)NCCOC(=O)CCC", "%", "=", 96),
    ("CCCCCCCCCCCCCCCC(=O)NCCOC(=O)CCC(=O)OCC(COC(=O)CCC)OC(=O)CCC (stereo not shown)", "%", "=", 67),
]

###

experiment: Intestinal S9 fraction stability, dog; settings: male, Beagle, dog, s9, Half-life, control compound, dog intestinal S9 fraction

# compound, half-life
data = [
    ("C[C@]12CC[C@H]3[C@@H](CCC4=CC(=O)CC[C@@]43C)[C@@H]1CC[C@@H]2O [Testosterone, testosterone, reference compound]", "> 1 h"),
]

###

assay: in vitro; settings: both, human, 20 min, 1 μM
readout-type: Concentration (μM) of analyte PEA, 20 min (µM)

# compound, assay-value
rows = [
    ("CCCCC/C=C\\C/C=C\\CCCCCCCC(=O)OCCNC(=O)CCCCCCCCCCCCCCC", 0.022),
    ("CCCCCCCCCCCCCCCC(=O)NCCOC(=O)CCC(=O)OCC(COC(=O)CCCCCCC)OC(=O)CCCCCCC (stereo not shown) [Compound I-3, PEA-Succinate-Glycerol-Di-Caprylic]", 0.017),
    ("CCCCCCCCCCCCCCCC(=O)NCCOC(=O)CCC(=O)OCC(O)CO (stereo not shown)", 0.18),
    ("CC/C=C\\C/C=C\\C/C=C\\C/C=C\\C/C=C\\CCCC(=O)OCCNC(=O)CCCCCCCCCCCCCCC", 0.036),
    ("CCCCCCCCCCCCCCCC(=O)NCCOC(=O)CCC(=O)OCC(COC(=O)CCC)OC(=O)CCC (stereo not shown)", 0.18),
    ("CCCCCCCCCCCCCCCC(=O)NCCOC(=O)CCC(=O)OC[C@H]1O[C@@](CO)(O[C@H]2O[C@H](CO)[C@@H](O)[C@H](O)[C@H]2O)[C@@H](O)[C@@H]1O", 0.17),
    ("CCCCCCCCCCCCCCCC(=O)NCCOC(=O)CCC", 0.18),
]

###

# % Remaining of Initial (n = 1), 0 min per record follows
experiment: in vitro; details: male, Beagle, dog, s9, 0 h, 1 μM
readout-type: % Remaining of Initial (n = 1), 0 min (%)

# compound, readout-type, units, assay-value
measured = [
    ("CCCCCCCCCCCCCCCC(=O)NCCOC(=O)CCC(=O)OCC(COC(=O)CCCCCCC)OC(=O)CCCCCCC (stereo not drawn) [Compound I-3, PEA-Succinate-Glycerol-Di-Caprylic]", "% Remaining of Initial (n = 1), 0 min", "%", 100),
    ("CCCCCCCCCCCCCCCC(=O)NCCOC(=O)CCC(=O)OCC(COC(=O)CCC)OC(=O)CCC (stereo not drawn) [Compound I-11]", "% Remaining of Initial (n = 1), 0 min", "%", 100),
    ("CCCCCCCCCCCCCCCC(=O)NCCOC(=O)CCC(=O)OCC(O)CO (stereo not drawn) [Compound I-9]", "% Remaining of Initial (n = 1), 0 min", "%", 100),
]

###

Test: in vitro
Conditions: male, CD-1, mouse, s9, CLint (mL/min/mg protein)
Protocol: Reaction mixture, minus cofactors, was prepared as described below. Test article was added into the reaction mixture at a final concentration of 1 μM. […] Halflives were calculated using GraphPad software, fitting to a single-phase exponential decay equation. Reaction mixture, minus cofactors, was prepared as described below. […] Halflives were calculated using GraphPad software, fitting to a single-phase exponential decay equation. […]
readout-type: microsomal CLint at 1 μM (µL/min/mg)

# compound, readout-type, relation, assay-value
data = [
    ("CCCCC/C=C\\C/C=C\\CCCCCCCC(=O)OCCNC(=O)CCCCCCCCCCCCCCC [Compound I-6]", "microsomal CLint at 1 μM", "<", 11.6),
    ("CCCCCCCCCCCCCCCC(=O)NCCOC(=O)CCC(=O)OCC(O)CO (centres unmarked) [Compound I-9]", "microsomal CLint at 1 μM", "=", 53.7),
    ("CCCCCCCCCCCCCCCC(=O)NCCOC(=O)CCC(=O)OCC(COC(=O)CCCCCCC)OC(=O)CCCCCCC (centres unmarked) [Compound I-3, PEA-Succinate-Glycerol-Di-Caprylic]", "microsomal CLint at 1 μM", "=", 21.1),
    ("CCCCCCCCCCCCCCCC(=O)NCCOC(=O)CCC(=O)OCC(COC(=O)CCC)OC(=O)CCC (centres unmarked) [Compound I-11]", "microsomal CLint at 1 μM", ">", 691),
    ("CCCCCCCCCCCCCCCC(=O)NCCOC(=O)CCC [Compound I-2]", "microsomal CLint at 1 μM", ">", 691),
]

###

# Concentration (μM) of analyte PEA, 60 min per record follows
assay: in vitro; settings: male, Beagle, dog, 60 min, 1 μM
readout-type: Concentration (μM) of analyte PEA, 60 min (µM)

# compound, units, assay-value
measured = [
    ("CCCCCCCCCCCCCCCC(=O)NCCOC(=O)CCC(=O)OC[C@H]1O[C@@](CO)(O[C@H]2O[C@H](CO)[C@@H](O)[C@H](O)[C@H]2O)[C@@H](O)[C@@H]1O", "µM", 0.50),
    ("CC/C=C\\C/C=C\\C/C=C\\C/C=C\\C/C=C\\CCCC(=O)OCCNC(=O)CCCCCCCCCCCCCCC", "µM", 0.28),
    ("CCCCCCCCCCCCCCCC(=O)NCCOC(=O)CCC", "µM", 0.54),
    ("CCCCCCCCCCCCCCCC(=O)NCCOC(=O)CCC(=O)OCC(COC(=O)CCC)OC(=O)CCC (stereo not shown)", "µM", 0.88),
    ("CCCCC/C=C\\C/C=C\\CCCCCCCC(=O)OCCNC(=O)CCCCCCCCCCCCCCC", "µM", 0.36),
    ("CCCCCCCCCCCCCCCC(=O)NCCOC(=O)CCC(=O)OCC(O)CO (stereo not shown)", "µM", 0.45),
    ("CCCCCCCCCCCCCCCC(=O)NCCOC(=O)CCC(=O)OCC(COC(=O)CCCCCCC)OC(=O)CCCCCCC (stereo not shown) [Compound I-3, PEA-Succinate-Glycerol-Di-Caprylic]", "µM", 0.50),
]

###

experiment: in vitro; conditions: male, Beagle, dog, 10 min, 1 μM
readout-type: Measured concentration of analyte PEA, 10 min

# compound, assay-value
measured = [
    ("CCCCCCCCCCCCCCCC(=O)NCCOC(=O)CCC(=O)OCC(COC(=O)CCC)OC(=O)CCC (stereo not shown)", "0.32 µM"),
    ("CCCCCCCCCCCCCCCC(=O)NCCOC(=O)CCC(=O)OCC(COC(=O)CCCCCCC)OC(=O)CCCCCCC (stereo not shown) [Compound I-3, PEA-Succinate-Glycerol-Di-Caprylic]", "0.023 µM"),
    ("CCCCCCCCCCCCCCCC(=O)NCCOC(=O)CCC(=O)OC[C@H]1O[C@@](CO)(O[C@H]2O[C@H](CO)[C@@H](O)[C@H](O)[C@H]2O)[C@@H](O)[C@@H]1O", "0.50 µM"),
    ("CCCCCCCCCCCCCCCC(=O)NCCOC(=O)CCC(=O)OCC(O)CO (stereo not shown)", "0.42 µM"),
    ("CC/C=C\\C/C=C\\C/C=C\\C/C=C\\C/C=C\\CCCC(=O)OCCNC(=O)CCCCCCCCCCCCCCC", "0.081 µM"),
    ("CCCCC/C=C\\C/C=C\\CCCCCCCC(=O)OCCNC(=O)CCCCCCCCCCCCCCC", "0.087 µM"),
    ("CCCCCCCCCCCCCCCC(=O)NCCOC(=O)CCC", "0.48 µM"),
]
